test-name: Food effect on single dose Compound of Formula I 100 mg single agent tablet (8 subjects)
Type: in vivo, human
experimental-conditions: human, plasma, oral, 100 mg, mean; Compound of Formula I 100 mg single agent tablet, Fed (high-fat breakfast), n = 8
measurement-type: Cmax (ng/mL)
Please state the figure in ng/mL; there is no need to write the unit.

Enquiry: Report Cmax for O=C(NCc1c(F)cc(F)cc1F)c1cn2c(c(O)c1=O)C(=O)N1[C@H]3CC[C@H](C3)O[C@@H]1C2 [Compound of Formula I]
Return: 11300

* * *

test-name: Physicochemical properties of the active ingredients (pKa, pH-dependent solubility and stability, BCS class)
Can you tell me pKa for the items I'm about to list?

Enquiry: Report pKa for Nc1nc(=O)n([C@@H]2CS[C@H](CO)O2)cc1F [Emtricitabine]
Return: 2.65

Enquiry: Report pKa for O=C(NCc1c(F)cc(F)cc1F)c1cn2c(c(O)c1=O)C(=O)N1[C@H]3CC[C@H](C3)O[C@@H]1C2 [Compound of Formula I]
Return: 8.6

Enquiry: Report pKa for CC(C)OC(=O)[C@H](C)N[P@](=O)(CO[C@H](C)Cn1cnc2c(N)ncnc21)Oc1ccccc1 [Tenofovir alafenamide]
Return: 3.9
